Each recorded value in this set is attributed to ChEMBL document CHEMBL2057140.

# target-under-test: Phosphatidylinositol 4,5-bisphosphate 3-kinase catalytic subunit gamma isoform (Homo sapiens)
# Sequence (P48736 whole entry, canonical isoform): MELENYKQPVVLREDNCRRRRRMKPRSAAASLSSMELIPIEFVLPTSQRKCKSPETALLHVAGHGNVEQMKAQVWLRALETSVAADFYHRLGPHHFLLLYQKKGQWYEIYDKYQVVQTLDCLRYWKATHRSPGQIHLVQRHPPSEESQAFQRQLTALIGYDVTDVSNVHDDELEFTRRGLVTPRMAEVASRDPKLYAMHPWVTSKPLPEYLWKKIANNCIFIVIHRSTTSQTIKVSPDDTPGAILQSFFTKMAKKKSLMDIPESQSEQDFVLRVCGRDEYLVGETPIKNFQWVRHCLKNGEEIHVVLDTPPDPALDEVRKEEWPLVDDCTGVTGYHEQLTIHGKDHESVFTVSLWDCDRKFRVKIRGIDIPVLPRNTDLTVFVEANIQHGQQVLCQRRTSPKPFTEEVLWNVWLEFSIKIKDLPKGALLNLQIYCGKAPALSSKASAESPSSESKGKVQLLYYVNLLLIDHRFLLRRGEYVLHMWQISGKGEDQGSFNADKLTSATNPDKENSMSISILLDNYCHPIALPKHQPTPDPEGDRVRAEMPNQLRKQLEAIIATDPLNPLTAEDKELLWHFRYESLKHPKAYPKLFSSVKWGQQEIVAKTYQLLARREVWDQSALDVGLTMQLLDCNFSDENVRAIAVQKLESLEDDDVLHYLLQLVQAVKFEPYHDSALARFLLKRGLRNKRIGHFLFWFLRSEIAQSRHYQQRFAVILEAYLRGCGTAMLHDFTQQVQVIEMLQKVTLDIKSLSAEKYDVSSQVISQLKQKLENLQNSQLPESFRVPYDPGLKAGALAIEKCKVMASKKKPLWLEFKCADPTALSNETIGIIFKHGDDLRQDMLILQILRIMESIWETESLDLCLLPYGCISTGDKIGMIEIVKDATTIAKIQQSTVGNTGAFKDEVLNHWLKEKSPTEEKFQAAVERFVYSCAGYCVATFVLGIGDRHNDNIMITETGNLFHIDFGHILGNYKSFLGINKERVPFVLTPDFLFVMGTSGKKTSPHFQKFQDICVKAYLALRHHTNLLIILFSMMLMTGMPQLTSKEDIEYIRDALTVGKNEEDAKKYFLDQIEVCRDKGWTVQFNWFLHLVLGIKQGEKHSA
# experiment: Inhibition of PI3Kgamma after 4 hrs
pIC50: −log10 of the molar value.
measured-metric: pIC50

Below: 3 compounds and their reported pIC50.
chem_smiles=COc1cc(-c2nnc(SCc3c(F)cccc3F)o2)ccc1OCc1c(F)cccc1F value_measured=5.24
chem_smiles=COc1cc(-c2nnc(SCc3ccccc3F)o2)ccc1OCc1ccccc1F value_measured=5.29
chem_smiles=COc1cc(-c2nnc(SCc3ccccc3C)o2)ccc1O value_measured=5.19

A = COc1cc(-c2nnc(SCc3ccc(C)cc3)o2)ccc1O
B = COc1cc(-c2nnc(SCc3ccccc3)o2)ccc1O
C = COc1cccc(CSc2nnc(-c3ccc(O)c(OC)c3)o2)c1
Q: Sort the 3 compounds by pIC50; largest first, smallest last. Sort and list the labels as requested.
Ans: B, C, A

###

# System: T-cell
# experiment: Selectivity index ratio of CC50 for BALB/c mouse lymph node cells to IC50 for BALB/c mouse ConA-induced T cell proliferation
# Assay type: functional
The molecules listed here are annotated with their Ratio CC50/IC50.
Note: the reply should be a number with no unit written.

Q: Any idea what its Ratio CC50/IC50 is? The molecule is COc1cc(-c2nnc(SCc3ccc(Br)cc3)o2)ccc1OCc1ccc(Br)cc1
Ans: 12.99

Q: Any idea what its Ratio CC50/IC50 is? The molecule is COc1cc(-c2nnc(SCc3ccccc3Cl)o2)ccc1O
Ans: 66.94

Q: Any idea what its Ratio CC50/IC50 is? The molecule is COc1cc(-c2nnc(SCc3ccc(F)cc3)o2)ccc1O
Ans: 83.62

Q: Any idea what its Ratio CC50/IC50 is? The molecule is COc1cc(-c2nnc(SCc3cccc(Cl)c3)o2)ccc1O
Ans: 56.74

Q: Any idea what its Ratio CC50/IC50 is? The molecule is COc1cc(-c2nnc(SCc3cccc(Cl)c3)o2)ccc1OCc1cccc(Cl)c1
Ans: 11.23

Q: Any idea what its Ratio CC50/IC50 is? The molecule is COc1cc(-c2nnc(SCc3c(F)cccc3F)o2)ccc1O
Ans: 57.1

###

# Test system: T-cell
# experiment: Selectivity index ratio of CC50 for BALB/c mouse lymph node cells to IC50 for BALB/c mouse ConA-induced T cell proliferation
# Type: functional
measured-metric: Ratio CC50/IC50
Note: the reply should be a number with no unit written.

Below: 5 molecules and their reported Ratio CC50/IC50.
chem_smiles=COc1cc(-c2nnc(SCc3ccc(F)cc3F)o2)ccc1O target_under_test=T-cell measured_metric="Ratio CC50/IC50" value_measured=53.67
chem_smiles=COc1cc(-c2nnc(SCc3ccccc3C)o2)ccc1O target_under_test=T-cell measured_metric="Ratio CC50/IC50" value_measured=70.36
chem_smiles=COc1cc(-c2nnc(SCc3ccc(F)cc3)o2)ccc1OCc1ccc(F)cc1 target_under_test=T-cell measured_metric="Ratio CC50/IC50" value_measured=11.89
chem_smiles=COc1cc(-c2nnc(SCc3ccccc3Br)o2)ccc1O target_under_test=T-cell measured_metric="Ratio CC50/IC50" value_measured=20.42
chem_smiles=COc1cc(-c2nnc(SCc3ccccc3Cl)o2)ccc1OCc1ccccc1Cl target_under_test=T-cell measured_metric="Ratio CC50/IC50" value_measured=8.67

--- query ---
Q: Any idea what its Ratio CC50/IC50 is? The molecule is COc1cc(-c2nnc(SCc3ccccc3)o2)ccc1O
Ans: 168.83
